Data origin: PubChem BioAssay

Below, each entry is listed alongside its reported composite z-score.
target: Calmodulin-1 (Homo sapiens); experiment: small molecules binding calmodulin-1 with EGTA – biochemical, small-molecule microarray, Cy5-labelled CALM1, profiling panel (AID 1111); conditions: Cy5-CALM1 binding fluorescence, higher = more signal;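 further: labelled calmodulin applied in Tris saline Tween buffer holding calcium plus EGTA and DTT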
Output: the number by itself.

Q: Quick one: composite z-score for `CC(C)NC(=O)[C@@]1(c2ccc([N+](=O)[O-])cc2)CC(=O)N(CC23CC4CC(CC(C4)C2)C3)[C@@H]1c1ccc(CO)cc1` ?
A: 1.03

---

target: NADPH oxidase 5 (Homo sapiens); assay: compounds shifting NOX5 Amplex Red fluorescence – cell-based, HEK293-NOX5, NOX inhibitor project, primary screen (AID 1161); settings: HEK293-NOX5, ionomycin, 45 min, higher = more signal
Cut-off -0.9 on z-score, inclusive. At or above means True; below means False.

Example cases with answers are listed next.
molecule	category
OCCCC1=CC(c2ccc(CN3CCCC3)cc2)N(Cc2cccc(OC(F)(F)F)c2)CC1 (configuration not stated)	False
COCCCN1C(=O)[C@@]2(c3ccc([N+](=O)[O-])cc3)CC(=O)N(CC34CC5CC(CC(C5)C3)C4)[C@@H]2c2ccc(CO)cc21	True
COC(=O)c1cccc([C@H]2OC(=CC(=O)OC(C)C)C[C@@H](c3cccc(C(=O)OC)c3)O2)c1	False
C=CCC(OC(C)=O)[C@@H]1[C@@H](N(Cc2cc3ccccc3o2)C(=O)Cc2ccc(OC)cc2)c2cc(OCCCO)ccc2N1C(=O)c1ccc2ccccc2n1 (some centres not stated)	True
CC(C)c1nc2cc(Br)ccc2c(=O)o1	True

We now examine a further molecule.
Q: Form field: z-score at least -0.9? Entry: `C=CCOC(=O)[C@@H]1[C@H]2C(=O)O[C@H](c3ccccc3)[C@H](c3ccccc3)N2[C@H](c2ccc(OCCOC(=O)[C@H]3C[C@H]4C(=O)N5CCC[C@H]5C(=O)N4[C@H]3c3cccc(OCCO)c3)cc2)[C@@]12C(=O)Nc1ccc(I)cc12`
A: True
